# Lookup of reported pIC50 keyed by entry
tested_on: ITK (Homo sapiens, UniProt Q08881)
Sequence (Q08881 1-620): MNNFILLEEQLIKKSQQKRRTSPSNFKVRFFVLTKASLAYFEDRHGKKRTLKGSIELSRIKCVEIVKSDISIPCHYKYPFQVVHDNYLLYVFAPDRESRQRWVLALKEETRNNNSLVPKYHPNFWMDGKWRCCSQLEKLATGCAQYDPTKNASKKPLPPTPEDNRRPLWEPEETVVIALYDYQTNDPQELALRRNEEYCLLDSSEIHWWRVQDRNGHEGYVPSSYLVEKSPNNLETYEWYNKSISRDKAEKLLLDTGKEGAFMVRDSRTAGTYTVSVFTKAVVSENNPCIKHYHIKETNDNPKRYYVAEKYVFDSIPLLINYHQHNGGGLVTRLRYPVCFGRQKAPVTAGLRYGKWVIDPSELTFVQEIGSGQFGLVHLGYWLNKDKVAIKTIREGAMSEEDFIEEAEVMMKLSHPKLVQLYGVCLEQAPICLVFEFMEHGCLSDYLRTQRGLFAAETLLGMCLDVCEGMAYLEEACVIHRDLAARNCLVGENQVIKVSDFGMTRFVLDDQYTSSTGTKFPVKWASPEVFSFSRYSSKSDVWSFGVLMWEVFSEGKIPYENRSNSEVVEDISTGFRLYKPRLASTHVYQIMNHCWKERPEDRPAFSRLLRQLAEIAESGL
protocol_details: Inhibition of a panel of kinases, in vitro HotSpot kinase assay: ITK
Type: biochemical
condition_description: Table 15, C compounds; 1 μM ATP
pIC50: −log10 of the molar value.

Here's what some known entries look like.
Prompt: Tell me pIC50 reported for C=CC(=O)N1CCC[C@@H](Nc2nnc(C(N)=O)c(Nc3ccc(C4CC4)cc3)n2)C1 [Example C-47]
Completion: 7.00 to 8.00

Prompt: Tell me pIC50 reported for C=CC(=O)N1CCC[C@H](Nc2nnc(C(N)=O)c(Nc3ccc(-c4ncco4)cc3)n2)C1 [Example C-34]
Completion: 7.00 to 8.00

Prompt: Tell me pIC50 reported for C=CC(=O)N1CCC[C@@H](Nc2nnc(C(N)=O)c(Nc3cccc(-c4nccs4)c3)n2)C1 [Example C-86]
Completion: 7.00 to 8.00

Here's the next entry for you.
Prompt: Tell me pIC50 reported for C=CC(=O)N1CCC[C@@H](Nc2nnc(C(N)=O)c(Nc3ccc(C(C)C)c(C)c3)n2)C1 [Example C-53]
Completion: 7.00 to 8.00

---

tested_on: UniProt:P00533
Sequence (P00533 25-1210): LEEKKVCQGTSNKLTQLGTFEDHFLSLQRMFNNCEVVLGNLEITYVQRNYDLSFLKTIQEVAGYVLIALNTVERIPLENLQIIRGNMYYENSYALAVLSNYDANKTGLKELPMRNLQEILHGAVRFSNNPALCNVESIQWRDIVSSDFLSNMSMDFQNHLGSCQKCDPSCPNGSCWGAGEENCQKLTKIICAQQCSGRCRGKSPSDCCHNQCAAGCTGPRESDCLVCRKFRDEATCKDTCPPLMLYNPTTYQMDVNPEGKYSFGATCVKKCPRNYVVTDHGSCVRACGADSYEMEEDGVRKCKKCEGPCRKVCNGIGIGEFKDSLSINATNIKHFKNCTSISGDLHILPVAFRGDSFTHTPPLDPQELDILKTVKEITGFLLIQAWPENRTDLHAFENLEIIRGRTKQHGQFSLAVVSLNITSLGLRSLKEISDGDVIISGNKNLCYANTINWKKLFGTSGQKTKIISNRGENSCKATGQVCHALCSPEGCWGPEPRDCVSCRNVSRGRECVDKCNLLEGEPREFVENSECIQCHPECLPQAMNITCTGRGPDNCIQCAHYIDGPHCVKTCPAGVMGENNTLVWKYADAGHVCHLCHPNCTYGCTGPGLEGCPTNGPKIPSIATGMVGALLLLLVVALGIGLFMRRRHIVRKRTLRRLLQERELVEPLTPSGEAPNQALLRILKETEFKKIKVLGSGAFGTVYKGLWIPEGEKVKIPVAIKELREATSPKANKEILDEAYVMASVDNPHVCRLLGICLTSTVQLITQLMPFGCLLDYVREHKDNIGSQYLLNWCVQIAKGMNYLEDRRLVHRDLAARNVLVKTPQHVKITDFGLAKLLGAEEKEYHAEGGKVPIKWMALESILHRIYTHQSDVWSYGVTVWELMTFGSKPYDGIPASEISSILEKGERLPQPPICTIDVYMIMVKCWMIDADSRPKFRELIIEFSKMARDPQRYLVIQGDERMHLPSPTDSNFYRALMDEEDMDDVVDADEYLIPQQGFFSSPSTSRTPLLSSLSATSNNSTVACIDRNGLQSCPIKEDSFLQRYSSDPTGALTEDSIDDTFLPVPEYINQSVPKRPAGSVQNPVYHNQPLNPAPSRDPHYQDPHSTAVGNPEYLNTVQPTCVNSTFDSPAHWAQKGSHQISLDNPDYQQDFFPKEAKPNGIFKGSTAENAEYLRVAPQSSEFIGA
protocol_details: Inhibition of a panel of kinases, in vitro HotSpot kinase assay: EGFR
Format: biochemical
condition_description: D-compounds panel data; 1 μM ATP
# Lookup of reported IC50 keyed by entry

Here's what some known entries look like.
Prompt: Tell me IC50 reported for C[C@@H]1[C@H](NC(=O)c2ccc3[nH]cnc3c2)CCCN1c1cnc(C(N)=O)c(Nc2cnn(C)c2)n1 [Example D-262]
Completion: 1000 to 10000 nM

Prompt: Tell me IC50 reported for C[C@@H]1[C@H](NC(=O)c2ccc(C3CC3)cc2Cl)CCCN1c1cnc(C(N)=O)c(Nc2cnn(C)c2)n1 [Example D-20]
Completion: 1000 to 10000 nM

Prompt: Tell me IC50 reported for CN1CCN(C(=O)c2ccc(Nc3nc(N[C@H]4CC[C@H](NC(=O)c5ccc(C6CC6)cc5F)CC4)cnc3C(N)=O)cc2)CC1 [Example D-70]
Completion: 100 to 1000 nM

Further cases:
Prompt: Tell me IC50 reported for C[C@@H]1[C@H](NC(=O)c2ccc(C3CC3)cc2)CCCN1c1cnc(C(N)=O)c(Nc2cnn(C(F)F)c2)n1 [Example D-275]
Completion: > 10000 nM
